# system under test: UniProtKB P21730
# assay remarks: Inhibition of binding of [125I]C5a to human polymorphonuclear leukocyte C5a receptor
assay readout: IC50
Quick note: unit goes after the number.

Consider the reported IC50 for these compounds:
NCCCC[C@H](NC(=O)[C@@H](N)Cc1ccccc1)C(=O)N[C@@H](Cc1ccccc1)C(=O)N[C@@H](CCCCN)C(=O)N1CCC[C@H]1C(=O)N[C@H](CC1CCCCC1)C(=O)N[C@@H](Cc1c[nH]c2ccccc12)C(=O)N[C@H](CCCN=C(N)N)C(=O)O; 4.57 µM
NCCCC[C@H](NC(=O)[C@H](Cc1ccccc1)NC(=O)[C@@H](N)CCCCN)C(=O)N1CCCC1C(=O)N[C@H](CC1CCCCC1)C(=O)N[C@@H](Cc1c[nH]c2ccccc12)C(=O)N[C@H](CCCN=C(N)N)C(=O)O (single isomer, unassigned); 2.63 µM
NCCCC[C@H](NC(=O)[C@@H](N)Cc1ccccc1)C(=O)N1CCCC1C(=O)N[C@H](CC1CCCCC1)C(=O)N[C@@H](Cc1c[nH]c2ccccc12)C(=O)N[C@H](CCCN=C(N)N)C(=O)O (single isomer, unassigned); 1.95 µM

Now consider the entry below.
INPUT: Give recorded IC50 with UniProtKB P21730 for the following compound: C[C@H](NC(=O)[C@@H](N)Cc1ccccc1)C(=O)N1CCCC1C(=O)N[C@H](CC1CCCCC1)C(=O)N[C@@H](Cc1c[nH]c2ccccc12)C(=O)N[C@H](CCCN=C(N)N)C(=O)O (single isomer, unassigned)
OUTPUT: 9.12 µM

* * *

Task for the reader: assign each of the following compounds its reported IC50.
# system under test: C5a anaphylatoxin chemotactic receptor 1 (Homo sapiens)
# Sequence (P21730 whole entry): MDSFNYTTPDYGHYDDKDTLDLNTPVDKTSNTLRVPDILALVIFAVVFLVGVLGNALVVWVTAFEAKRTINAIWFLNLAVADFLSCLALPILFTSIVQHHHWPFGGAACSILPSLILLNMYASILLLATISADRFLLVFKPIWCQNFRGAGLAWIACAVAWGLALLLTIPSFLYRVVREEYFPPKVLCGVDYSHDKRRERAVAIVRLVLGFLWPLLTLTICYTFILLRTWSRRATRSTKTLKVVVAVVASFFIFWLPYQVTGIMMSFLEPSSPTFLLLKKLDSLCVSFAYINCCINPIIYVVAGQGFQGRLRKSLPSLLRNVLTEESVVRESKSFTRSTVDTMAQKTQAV
# assay remarks: Inhibition of binding of [125I]C5a to human polymorphonuclear leukocyte C5a receptor
Numbers only, in µM.

NCCCC[C@H](NC(=O)[C@H](Cc1ccccc1)NC(=O)[C@@H](N)CCCCN)C(=O)N1CCCC1C(=O)N[C@H](CC1CCCCC1)C(=O)N[C@@H](Cc1c[nH]c2ccccc12)C(=O)N[C@H](CCCN=C(N)N)C(=O)O (single isomer, unassigned); 2.6

Each compound below has a recorded value; state its IC50.
1. CC(=O)N[C@@H](Cc1ccccc1)C(=O)N[C@@H](CCCCN)C(=O)N1CCCC1C(=O)N[C@H](CC1CCCCC1)C(=O)N[C@@H](CC1c2ccccc2-c2ccccc21)C(=O)N[C@H](CCCN=C(N)N)C(=O)O (single isomer, unassigned; 16a)
2. CC(=O)N[C@@H](Cc1ccccc1)C(=O)N[C@@H](CCCCN)C(=O)N1CCCC1C(=O)N[C@H](CC1CCCCC1)C(=O)N[C@@H](Cc1c[nH]c2ccccc12)C(=O)N[C@H](CCCN=C(N)N)C(=O)O (single isomer, unassigned)
3. NCCCC[C@H](NC(=O)[C@@H](N)Cc1ccccc1)C(=O)N[C@@H](Cc1ccccc1)C(=O)N[C@@H](CCCCN)C(=O)N1CCC[C@H]1C(=O)N[C@H](CC1CCCCC1)C(=O)N[C@@H](Cc1c[nH]c2ccccc12)C(=O)N[C@H](CCCN=C(N)N)C(=O)O
4. CC(C)[C@H](NC(=O)[C@H](CO)NC(=O)[C@H](Cc1c[nH]cn1)NC(=O)[C@H](CCCCN)NC(=O)[C@H](Cc1ccc(O)cc1)NC(=O)[C@@H](N)CCCCN)C(=O)N[C@H](C(=O)N[C@@H](CCCCN)C(=O)N[C@@H](CCCCN)C(=O)NCCCCC(=O)NCC(=O)NCC(=O)NCC(=O)NCC(=O)N[C@@H](Cc1ccccc1)C(=O)N[C@@H](CCCCN)C(=O)N1CCC[C@H]1C(=O)N[C@H](CC1CCCCC1)C(=O)N[C@@H](Cc1c[nH]c2ccccc12)C(=O)N[C@H](CCCNC(=N)N)C(=O)O)C(C)C
5. CCCC[C@H](NC(=O)[C@H](Cc1ccccc1)NC(C)=O)C(=O)N1CCCC1C(=O)N[C@H](CC1CCCCC1)C(=O)N[C@@H](Cc1c[nH]c2ccccc12)C(=O)N[C@H](CCCN=C(N)N)C(=O)O (single isomer, unassigned)
6. CN1C(=O)[C@@H](CCCN=C(N)N)NC(=O)[C@H](Cc2c[nH]c3ccccc23)NC(=O)[C@@H](CC2CCCCC2)NC(=O)[C@@H]2CCCN2C(=O)[C@H](Cc2c[nH]c3ccccc23)NC(=O)[C@@H]1Cc1ccccc1

OUTPUT:
[51, 4.8, 4.6, 0.2, 3.6, 3]

* * *

Task for the reader: assign each of the following molecules its reported IC50.
# system under test: C5a anaphylatoxin chemotactic receptor 1 (Homo sapiens, UniProt P21730)
# Sequence (P21730 whole entry): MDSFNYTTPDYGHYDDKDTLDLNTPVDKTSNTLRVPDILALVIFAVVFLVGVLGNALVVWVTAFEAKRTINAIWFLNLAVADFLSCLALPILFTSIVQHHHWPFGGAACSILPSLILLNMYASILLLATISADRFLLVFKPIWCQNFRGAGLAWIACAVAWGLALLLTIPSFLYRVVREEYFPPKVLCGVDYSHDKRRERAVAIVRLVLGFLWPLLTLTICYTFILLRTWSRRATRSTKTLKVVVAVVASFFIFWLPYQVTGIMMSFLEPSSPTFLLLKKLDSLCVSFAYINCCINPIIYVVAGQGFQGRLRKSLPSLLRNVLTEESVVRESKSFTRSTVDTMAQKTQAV
# assay remarks: Inhibition of binding of [125I]C5a to human polymorphonuclear leukocyte C5a receptor
One number for each entry, in µM.

CC(=O)N[C@@H](Cc1ccccc1)C(=O)N[C@@H](CCCCN)C(=O)N1CCCC1C(=O)N[C@H](CC1CCCCC1)C(=O)N[C@@H](Cc1c[nH]c2ccccc12)C(=O)N[C@H](CCCN=C(N)N)C(=O)O (single isomer, unassigned); 4.79
CC(C)[C@H](NC(=O)[C@H](CO)NC(=O)[C@H](Cc1c[nH]cn1)NC(=O)[C@H](CCCCN)NC(=O)[C@H](Cc1ccc(O)cc1)NC(=O)[C@@H](N)CCCCN)C(=O)N[C@H](C(=O)N[C@@H](CCCCN)C(=O)N[C@@H](CCCCN)C(=O)NCCCCC(=O)N[C@@H](Cc1ccccc1)C(=O)N[C@@H](CCCCN)C(=O)N1CCC[C@H]1C(=O)N[C@H](CC1CCCCC1)C(=O)N[C@@H](Cc1c[nH]c2ccccc12)C(=O)N[C@H](CCCN=C(N)N)C(=O)O)C(C)C; 1.23

Now consider the entry below.
INPUT: Look up IC50 for this molecule: CC(=O)N[C@@H](Cc1ccccc1)C(=O)N[C@@H](CCCN)C(=O)N1CCCC1C(=O)N[C@H](CC1CCCCC1)C(=O)N[C@@H](Cc1c[nH]c2ccccc12)C(=O)N[C@H](CCCN=C(N)N)C(=O)O (single isomer, unassigned)
OUTPUT: 0.794

* * *

Task for the reader: assign each of the following compounds its reported IC50.
# system under test: C5a anaphylatoxin chemotactic receptor 1 (Homo sapiens, UniProt P21730)
# assay remarks: Inhibition of binding of [125I]C5a to human polymorphonuclear leukocyte C5a receptor
Numbers only, in µM.

CN1C(=O)[C@@H](CCCN=C(N)N)NC(=O)[C@H](Cc2c[nH]c3ccccc23)NC(=O)[C@@H](CC2CCCCC2)NC(=O)[C@@H]2CCCN2C(=O)[C@H](Cc2c[nH]c3ccccc23)NC(=O)[C@@H]1Cc1ccccc1; 2.95

Now consider the entry below.
INPUT: Look up IC50 for this compound: CCCC[C@H](NC(=O)[C@H](Cc1ccccc1)NC(C)=O)C(=O)N1CCCC1C(=O)N[C@H](CC1CCCCC1)C(=O)N[C@@H](Cc1c[nH]c2ccccc12)C(=O)N[C@H](CCCN=C(N)N)C(=O)O (single isomer, unassigned)
OUTPUT: 3.55

* * *

# system under test: C5a anaphylatoxin chemotactic receptor 1 (Homo sapiens)
# Sequence (P21730 whole entry): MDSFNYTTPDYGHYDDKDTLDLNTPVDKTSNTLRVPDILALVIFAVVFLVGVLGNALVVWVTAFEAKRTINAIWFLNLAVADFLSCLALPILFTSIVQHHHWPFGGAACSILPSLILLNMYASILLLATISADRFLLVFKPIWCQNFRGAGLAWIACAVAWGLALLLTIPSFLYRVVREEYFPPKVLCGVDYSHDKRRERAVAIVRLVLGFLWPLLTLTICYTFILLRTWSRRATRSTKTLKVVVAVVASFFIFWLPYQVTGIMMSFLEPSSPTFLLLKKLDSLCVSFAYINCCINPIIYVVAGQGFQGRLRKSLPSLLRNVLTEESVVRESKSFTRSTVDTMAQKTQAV
# assay remarks: Inhibition of binding of [125I]C5a to human polymorphonuclear leukocyte C5a receptor
assay readout: IC50

Consider the reported IC50 for these compounds:
CC(C)[C@H](NC(=O)[C@H](CO)NC(=O)[C@H](Cc1c[nH]cn1)NC(=O)[C@H](CCCCN)NC(=O)[C@H](Cc1ccc(O)cc1)NC(=O)[C@@H](N)CCCCN)C(=O)N[C@H](C(=O)N[C@@H](CCCCN)C(=O)N[C@@H](CCCCN)C(=O)NCCCCC(=O)NCC(=O)NCC(=O)NCC(=O)NCC(=O)N[C@@H](Cc1ccccc1)C(=O)N[C@@H](CCCCN)C(=O)N1CCC[C@H]1C(=O)N[C@H](CC1CCCCC1)C(=O)N[C@@H](Cc1c[nH]c2ccccc12)C(=O)N[C@H](CCCNC(=N)N)C(=O)O)C(C)C; > 0.174 µM
CC(=O)N[C@@H](Cc1ccccc1)C(=O)N[C@@H](CCCCN)C(=O)N1CCCC1C(=O)N[C@H](CC1CCCCC1)C(=O)N[C@@H](CC1c2ccccc2-c2ccccc21)C(=O)N[C@H](CCCN=C(N)N)C(=O)O (single isomer, unassigned; 16a); > 51.3 µM
N=C(N)NCCC[C@H]1NC(=O)[C@H](Cc2c[nH]c3ccccc23)NC(=O)[C@@H](CC2CCCCC2)NC(=O)[C@@H]2CCCN2C(=O)[C@H](Cc2c[nH]c3ccccc23)NC(=O)[C@H](Cc2ccccc2)NC1=O; > 42.7 µM

Now consider the entry below.
INPUT: Give recorded IC50 with C5a anaphylatoxin chemotactic receptor 1 (Homo sapiens) for the following compound: C[C@H](N)C(=O)N[C@@H](CCCCN)C(=O)N1CCCC1C(=O)N[C@H](CC1CCCCC1)C(=O)N[C@@H](Cc1c[nH]c2ccccc12)C(=O)N[C@H](CCCN=C(N)N)C(=O)O (single isomer, unassigned)
OUTPUT: > 1000 µM
